- Experiment: Plasma concentration in CD-1 mouse at 10 mg/kg, ip or 20 mg/kg, po administered via gavage as single dose measured at 0.5 hrs post dose by LC-MS/MS analysis
- Assay type: ADME, organism-based
Entries and their measured concentration at 0.5 h follow.
Lab book: enter the figure in µM, no units written.

| Compound | Result |
| --- | --- |
| O=C(Nc1ccc(Cl)cc1)C1CN(C(=O)c2cccc(-c3ccncc3)c2)CC(F)(F)C1 (configuration not stated) | 14.4 |

// moving on: another record for concentration at 0.5 h
Q) Provide only the value of recorded concentration at 0.5 h for O=C(Nc1ccc(Cl)cc1)C1CN(C(=O)c2cc(F)cc(-c3ccncc3)c2)CC(F)(F)C1 (configuration not stated)
A) 13.2

====

Entries and their measured AUC(0-t) at 7 h follow.
- Experiment: AUC (0 to 7 hrs) in CD-1 mouse at 10 mg/kg, ip administered as single dose by LC-MS/MS analysis
- Format: ADME, organism-based
- Set-up: dose 10 mg/kg, time < 7 hr, route intraperitoneal
- Run parameters: in vivo

Example entries begin here.
| Molecule | AUC(0-t) at 7 h |
| --- | --- |
| O=C(Nc1ccc(Cl)cc1)C1CN(C(=O)c2cccc(-c3ccncc3)c2)CC(F)(F)C1 (centres undefined) | 15300 ng·h/mL |
| O=C(Nc1ccc(Cl)cc1)C1CN(C(=O)c2cc(F)cc(-c3ccncc3)c2)CC(F)(F)C1 (centres undefined) | 26700 ng·h/mL |
| O=C(Nc1ccc(Cl)cc1)C1CN(C(=O)c2cccc(-c3ccco3)c2)CC(F)(F)C1 (centres undefined) | 9200 ng·h/mL |

// moving on: another record for AUC(0-t) at 7 h
Q) Provide only the value of recorded AUC(0-t) at 7 h for O=C(Nc1ccc(Cl)cc1)C1CCCN(C(=O)c2cccc(-c3ccco3)c2)C1 (centres undefined)
A) 1200 ng·h/mL

====

- Experiment: Thermodynamic aqueous solubility of the compound in water by nitrogen detection method
- Assay type: physicochemical
- Run parameters: buffer
Readout type: Therm_solubility

| Compound | Result |
| --- | --- |
| O=C(Nc1ccc(Cl)cc1)C1CCCN(C(=O)c2cccc(-c3ccco3)c2)C1 (stereo not drawn) | 13.4 µg/mL |

Q) Provide only the value of recorded Therm_solubility for O=C(Nc1ccc(Cl)cc1)C1CN(C(=O)c2cccc(-c3ccccn3)c2)CC(F)(F)C1 (stereo not drawn)
A) 3.9 µg/mL

Q) Provide only the value of recorded Therm_solubility for O=C(Nc1ccc(Cl)cc1)C1CN(C(=O)c2cccc(-n3cccn3)c2)CC(F)(F)C1 (stereo not drawn)
A) 23 µg/mL
